percent degradation of TPM3-TRKA protein at 0.01 µM by entry:
# test-system: TPM3-TRKA fusion protein (Homo sapiens)
# Construct: The resulted chimeric proteins always retain the kinase domain of TRK proteins; TPM3 (fusion partner, N-terminal part of tropomyosin alpha-3, P06753); endogenous in cells; host or cells: KM12 colon cancer cells; the other entry of the earlier key: TPM3 (P06753, Tropomyosin alpha-3 chain)
# Sequence (P04629 with tags, fused parts or gaps): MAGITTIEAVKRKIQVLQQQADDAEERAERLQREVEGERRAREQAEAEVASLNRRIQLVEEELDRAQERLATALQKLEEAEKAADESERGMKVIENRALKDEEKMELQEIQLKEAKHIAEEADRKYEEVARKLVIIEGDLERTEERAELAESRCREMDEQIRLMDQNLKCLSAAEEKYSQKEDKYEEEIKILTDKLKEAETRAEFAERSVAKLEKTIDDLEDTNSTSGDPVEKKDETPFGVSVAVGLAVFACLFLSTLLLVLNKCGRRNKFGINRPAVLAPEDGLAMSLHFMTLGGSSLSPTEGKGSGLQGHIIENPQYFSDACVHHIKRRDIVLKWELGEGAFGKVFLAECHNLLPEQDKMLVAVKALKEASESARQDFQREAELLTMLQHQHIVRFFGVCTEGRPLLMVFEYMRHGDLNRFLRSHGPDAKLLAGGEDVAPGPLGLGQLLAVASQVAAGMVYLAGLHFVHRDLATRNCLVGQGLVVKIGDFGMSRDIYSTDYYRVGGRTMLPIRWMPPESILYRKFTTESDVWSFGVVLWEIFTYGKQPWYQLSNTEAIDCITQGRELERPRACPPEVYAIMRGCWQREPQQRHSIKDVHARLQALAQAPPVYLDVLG
# test-method-notes: TPM3-TRKA fusion protein levels in KM12 cells (Western blot)
# Format: cell-based
# experimental-conditions: 16 h; TPM3-TRKA degradation in KM12 cells at 10 nM compound, category of percentage degradation; read-out: Degradation (at 10 nM)

{"columns": ["molecule", "result"],
 "data": [
  ["O=C1CCC(N2C(=O)c3cccc(NCC(=O)N4CCN(c5ccc(C(=O)Nc6n[nH]c7ccc(Cc8cc(F)cc(F)c8)cc67)c(NC6CCOCC6)c5)CC4)c3C2=O)C(=O)N1 (centres unmarked) [CPD-055]", "> 80%"],
  ["O=C1CCC(N2C(=O)c3ccc(NCCOCCC(=O)N4CCN(c5cccc(-c6cnc7ccc(N8CCC[C@@H]8c8cccc(F)c8)nn67)n5)CC4)cc3C2=O)C(=O)N1 (some centres unmarked) [TR-119]", "> 80%"]
]}

Ask: For O=C1CCC(N2C(=O)c3cccc(NCCCC(=O)N4CCN(c5ccc(C(=O)Nc6n[nH]c7ccc(Cc8cc(F)cc(F)c8)cc67)c(NC6CCOCC6)c5)CC4)c3C2=O)C(=O)N1 (centres unmarked) [CPD-053] , what is its reported percent degradation of TPM3-TRKA protein at 0.01 µM?
Reply: > 80%

Ask: Any idea what its percent degradation of TPM3-TRKA protein at 0.01 µM is? The molecule is O=C(CN1CCN(c2ccc(C(=O)Nc3n[nH]c4ccc(Cc5cc(F)cc(F)c5)cc34)c(NC3CCOCC3)c2)CC1)NCCCNc1cccc2c1C(=O)N(C1CCC(=O)NC1=O)C2=O (centres unmarked) [TR-152]
Reply: > 80%

Ask: For O=C1CCC(N2C(=O)c3ccc(NCCOCCOCCC(=O)N4CCN(c5ccc(C(=O)Nc6n[nH]c7ccc(Cc8cc(F)cc(F)c8)cc67)c(NC6CCOCC6)c5)CC4)cc3C2=O)C(=O)N1 (centres unmarked) [TR-141] , what is its reported percent degradation of TPM3-TRKA protein at 0.01 µM?
Reply: > 80%
